AC50 for assorted compounds
target: Sodium-dependent noradrenaline transporter (Homo sapiens); also: assay procedure not described here
Sequence (P23975 whole entry): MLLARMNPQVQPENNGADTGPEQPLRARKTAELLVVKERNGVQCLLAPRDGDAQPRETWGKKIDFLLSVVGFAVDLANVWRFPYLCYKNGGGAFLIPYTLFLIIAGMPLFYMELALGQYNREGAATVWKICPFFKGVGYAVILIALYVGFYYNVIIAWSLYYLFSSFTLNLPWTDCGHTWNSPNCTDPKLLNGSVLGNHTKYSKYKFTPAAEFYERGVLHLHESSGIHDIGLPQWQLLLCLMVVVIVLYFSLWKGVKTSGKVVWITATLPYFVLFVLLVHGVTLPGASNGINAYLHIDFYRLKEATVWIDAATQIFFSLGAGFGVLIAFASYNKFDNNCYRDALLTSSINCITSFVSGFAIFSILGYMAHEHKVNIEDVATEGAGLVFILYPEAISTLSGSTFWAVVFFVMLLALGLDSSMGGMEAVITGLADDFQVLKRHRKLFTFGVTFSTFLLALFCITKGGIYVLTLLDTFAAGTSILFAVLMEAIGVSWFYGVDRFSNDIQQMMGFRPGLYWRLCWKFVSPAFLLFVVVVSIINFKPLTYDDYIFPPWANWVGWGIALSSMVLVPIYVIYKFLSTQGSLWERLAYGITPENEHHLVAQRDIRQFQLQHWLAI
measurement-name: AC50

[[record]]
compound = "CC#CCn1c(N2CCC[C@@H](N)C2)nc2c1c(=O)n(Cc1nc(C)c3ccccc3n1)c(=O)n2C [LINAGLIPTIN]"
test_value = "> 30 µM"

[[record]]
compound = "O=C1CN=C(c2ccccc2)c2cc(Cl)ccc2N1 [NORDAZEPAM]"
test_value = "> 10 µM"

[[record]]
compound = "CCn1cc(C(=O)O)c(=O)c2cc(F)c(N3CCN(C)CC3)cc21 [PEFLOXACIN]"
test_value = "> 30 µM"

[[record]]
compound = "Cc1cc(CC(=O)O)n(C)c1C(=O)c1ccc(Cl)cc1 [ZOMEPIRAC]"
test_value = "> 30 µM"

[[record]]
compound = "CNC(=O)c1cc(Oc2ccc(NC(=O)Nc3ccc(Cl)c(C(F)(F)F)c3)c(F)c2)ccn1 [REGORAFENIB]"
test_value = "21.9 µM"

[[record]]
compound = "CCOC(=O)Nc1ccc2c(c1)N(C(=O)CCN1CCOCC1)c1ccccc1S2 [MORICIZINE]"
test_value = "> 30 µM"

[[record]]
compound = "O=c1oc2ccccc2c(O)c1Cc1c(O)c2ccccc2oc1=O [DICUMAROL]"
test_value = "> 10 µM"

[[record]]
compound = "COc1cc2nccc(Oc3ccc(NC(=O)Nc4cc(C)on4)c(Cl)c3)c2cc1OC [TIVOZANIB]"
test_value = "> 3 µM"

[[record]]
compound = "CNC[C@H](O)c1cccc(O)c1 [PHENYLEPHRINE]"
test_value = "> 10 µM"

[[record]]
compound = "COc1ccc(Cc2nccc3cc(OC)c(OC)cc23)cc1OC [PAPAVERINE]"
test_value = "> 30 µM"

[[record]]
compound = "CC(=O)c1ccc2c(c1)N(CCCN1CCC(CCO)CC1)c1ccccc1S2 [PIPERACETAZINE]"
test_value = "1.8 µM"

[[record]]
compound = "O=C(Nc1c(Cl)cncc1Cl)c1ccc(OC(F)F)c(OCC2CC2)c1 [ROFLUMILAST]"
test_value = "> 30 µM"

[[record]]
compound = "CC(=O)Oc1ccccc1C(=O)Nc1ncc([N+](=O)[O-])s1 [NITAZOXANIDE]"
test_value = "5.1 µM"

[[record]]
compound = "COc1cccc2c1C(=O)c1c(O)c3c(c(O)c1C2=O)C[C@@](O)(C(C)=O)C[C@@H]3O[C@H]1C[C@H](N)[C@H](O)[C@H](C)O1 [DAUNORUBICIN]"
test_value = "10.4 µM"

[[record]]
compound = "CC(/C=C1\\SC(=S)N(CC(=O)O)C1=O)=C\\c1ccccc1"
test_value = "15 µM"

[[record]]
compound = "C#C[C@]1(O)CC[C@H]2[C@@H]3CCc4cc(OC)ccc4[C@H]3CC[C@@]21C [MESTRANOL]"
test_value = "10.9 µM"

[[record]]
compound = "C#C[C@]1(O)CC[C@H]2[C@@H]3CCC4=CC(=O)CCC4=C3C=C[C@@]21CC [GESTRINONE]"
test_value = "> 30 µM"

[[record]]
compound = "Cc1ccc2c(-c3ccccc3)nc(=O)n(C(C)C)c2c1 [PROQUAZONE]"
test_value = "> 30 µM"

[[record]]
compound = "CC1(C)O[C@@H]2C[C@H]3[C@@H]4C[C@H](F)C5=CC(=O)C=C[C@]5(C)[C@H]4[C@@H](O)C[C@]3(C)[C@]2(C(=O)CO)O1 [FLUNISOLIDE]"
test_value = "> 30 µM"

[[record]]
compound = "Nc1nc(O)c2ncn(COC(CO)CO)c2n1 [GANCICLOVIR]"
test_value = "> 30 µM"

[[record]]
compound = "CC(C)OC(=O)C(C(=O)OC(C)C)=C1SC=CS1 [MALOTILATE]"
test_value = "> 30 µM"

[[record]]
compound = "Clc1cccc(Cl)c1N=C1NCCN1 [CLONIDINE]"
test_value = "> 10 µM"

[[record]]
compound = "CC(=O)/N=c1/sc(S(N)(=O)=O)nn1C [METHAZOLAMIDE]"
test_value = "> 10 µM"

[[record]]
compound = "Cc1cccc(N(C)C(=S)Oc2ccc3ccccc3c2)c1 [TOLNAFTATE]"
test_value = "> 10 µM"

[[record]]
compound = "CC(=N)N1CC[C@H](SC2=C(C(=O)O)N3C(=O)[C@H]([C@@H](C)O)[C@H]3C2)C1"
test_value = "> 300 µM"

[[record]]
compound = "CCn1cc(C(=O)O)c(=O)c2cc(F)c(N3CCNCC3)nc21 [ENOXACIN]"
test_value = "> 10 µM"

[[record]]
compound = "CCN(CC)CCOC(=O)c1ccc(N)cc1Cl [CHLOROPROCAINE]"
test_value = "> 30 µM"

[[record]]
compound = "COc1cc2c(Nc3ccc(Br)cc3F)ncnc2cc1OCC1CCN(C)CC1 [VANDETANIB]"
test_value = "> 30 µM"

[[record]]
compound = "CC(C)(C)NC[C@H](O)COc1nsnc1N1CCOCC1 [TIMOLOL]"
test_value = "> 30 µM"

[[record]]
compound = "CN(C)C(=O)Oc1cc(OC(=O)N(C)C)cc(C(O)CNC(C)(C)C)c1 (centres undefined) [BAMBUTEROL]"
test_value = "> 30 µM"

[[record]]
compound = "C=CC(N)CCC(=O)O (centres undefined) [VIGABATRIN]"
test_value = "21.7 µM"

[[record]]
compound = "O=C(O)CSCC(=O)NC1CCSC1=O (centres undefined) [ERDOSTEINE]"
test_value = "> 30 µM"

[[record]]
compound = "C=C[C@@]1(C)CC(=O)[C@]2(O)[C@@]3(C)[C@@H](O)CCC(C)(C)[C@@H]3[C@H](OC(=O)CCN(C)C)[C@H](OC(C)=O)[C@@]2(C)O1"
test_value = "> 30 µM"

[[record]]
compound = "[H]/N=C(/N)N[C@H]1[C@H](O)[C@@H](O)[C@H](O[C@@H]2O[C@@H](C)[C@](O)(C=O)[C@H]2O[C@@H]2O[C@@H](CO)[C@H](O)[C@@H](O)[C@@H]2NC)[C@@H](N/C(N)=N\\[H])[C@@H]1O [STREPTOMYCIN]"
test_value = "> 30 µM"


---

Entries below carry reported AC50 on Sodium-dependent serotonin transporter (Homo sapiens).
Sequence (P31645 whole entry): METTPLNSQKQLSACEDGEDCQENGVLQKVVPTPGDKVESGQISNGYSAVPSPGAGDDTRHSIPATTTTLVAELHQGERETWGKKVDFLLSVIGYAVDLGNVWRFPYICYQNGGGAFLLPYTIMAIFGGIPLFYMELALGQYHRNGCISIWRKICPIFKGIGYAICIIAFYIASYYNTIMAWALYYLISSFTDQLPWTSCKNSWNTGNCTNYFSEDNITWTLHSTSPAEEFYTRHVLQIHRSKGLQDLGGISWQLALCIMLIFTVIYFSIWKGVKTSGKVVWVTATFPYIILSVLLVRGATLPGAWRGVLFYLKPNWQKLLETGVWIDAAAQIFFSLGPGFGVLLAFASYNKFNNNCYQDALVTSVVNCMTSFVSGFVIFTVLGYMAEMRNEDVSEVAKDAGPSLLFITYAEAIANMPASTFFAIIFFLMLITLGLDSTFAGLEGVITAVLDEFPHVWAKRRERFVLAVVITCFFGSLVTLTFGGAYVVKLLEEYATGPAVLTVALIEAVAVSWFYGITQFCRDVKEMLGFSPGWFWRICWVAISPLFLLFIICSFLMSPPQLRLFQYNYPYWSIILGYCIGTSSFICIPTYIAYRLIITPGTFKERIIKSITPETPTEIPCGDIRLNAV
measurement-name: AC50

[[record]]
molecule = "C=C[C@@]1(C)CC(=O)[C@]2(O)[C@@]3(C)[C@@H](O)CCC(C)(C)[C@@H]3[C@H](OC(=O)CCN(C)C)[C@H](OC(C)=O)[C@@]2(C)O1"
test_value = "> 30 µM"

[[record]]
molecule = "CN(C)c1cc(NC(=O)CNC(C)(C)C)c(O)c2c1C[C@H]1C[C@H]3[C@H](N(C)C)C(O)=C(C(N)=O)C(=O)[C@@]3(O)C(O)=C1C2=O [TIGECYCLINE]"
test_value = "> 30 µM"

[[record]]
molecule = "CCCN(CC)C(CC)C(=O)Nc1c(C)cccc1C (centres undefined) [ETIDOCAINE]"
test_value = "> 30 µM"

[[record]]
molecule = "CN1CCN(c2c(F)cc3c(=O)c(C(=O)O)cn4c3c2SCC4)CC1 [RUFLOXACIN]"
test_value = "> 30 µM"

[[record]]
molecule = "CC(NCCc1ccc(O)cc1)C(O)c1ccc(O)cc1 (centres undefined) [RITODRINE]"
test_value = "16.3 µM"

[[record]]
molecule = "CO[C@@]1(NC(=O)Cc2cccs2)C(=O)N2C(C(=O)O)=C(COC(N)=O)CS[C@@H]21 [CEFOXITIN]"
test_value = "> 30 µM"

[[record]]
molecule = "CCCN(CCc1cccs1)[C@H]1CCc2c(O)cccc2C1 [ROTIGOTINE]"
test_value = "7.8 µM"

[[record]]
molecule = "CC(=O)O[C@H]1C[C@@H]2CC[C@@H]3[C@H](CC[C@@]4(C)[C@H]3C[C@H]([N+]3(C)CCCCC3)[C@@H]4OC(C)=O)[C@@]2(C)C[C@@H]1[N+]1(C)CCCCC1 [PANCURONIUM]"
test_value = "> 10 µM"

[[record]]
molecule = "C=CC(N)CCC(=O)O (centres undefined) [VIGABATRIN]"
test_value = "12.2 µM"


---

target: Beta-1 adrenergic receptor (Homo sapiens, UniProt P08588); format: functional; also: assay procedure not described here
Sequence (P08588 whole entry): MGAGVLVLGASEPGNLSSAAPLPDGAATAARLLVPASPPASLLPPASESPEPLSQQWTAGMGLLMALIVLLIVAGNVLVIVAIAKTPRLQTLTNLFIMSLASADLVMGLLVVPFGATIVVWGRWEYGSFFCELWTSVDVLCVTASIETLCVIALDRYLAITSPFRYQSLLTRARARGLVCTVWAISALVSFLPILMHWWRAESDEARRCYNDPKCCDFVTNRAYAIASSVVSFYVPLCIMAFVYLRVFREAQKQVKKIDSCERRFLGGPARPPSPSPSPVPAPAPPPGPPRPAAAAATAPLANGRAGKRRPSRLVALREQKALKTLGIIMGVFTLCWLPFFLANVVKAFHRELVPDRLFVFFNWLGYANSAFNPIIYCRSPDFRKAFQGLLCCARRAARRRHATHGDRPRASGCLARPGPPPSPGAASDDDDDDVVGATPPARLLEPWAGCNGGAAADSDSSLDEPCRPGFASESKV
measurement-name: AC50

[[record]]
compound = "C=C(C)[C@@H]1CCC(C)=C[C@H]1c1c(O)cc(CCCCC)cc1O [CANNABIDIOL]"
test_value = "> 30 µM"

[[record]]
compound = "CN1c2ccccc2C(NCCCCCCC(=O)O)c2ccc(Cl)cc2S1(=O)=O (configuration not stated) [TIANEPTINE]"
test_value = "> 30 µM"

[[record]]
compound = "C[C@@H]1CCC[C@H](C)N1NC(=O)c1ccc(Cl)c(S(N)(=O)=O)c1 [CLOPAMIDE]"
test_value = "> 30 µM"

[[record]]
compound = "CCN(CC)CCOC(=O)c1ccc(N)cc1Cl [CHLOROPROCAINE]"
test_value = "> 30 µM"

[[record]]
compound = "C#C[C@]1(O)CC[C@H]2[C@@H]3CCc4cc(OC)ccc4[C@H]3CC[C@@]21C [MESTRANOL]"
test_value = "> 10 µM"

[[record]]
compound = "Nc1nc(O)c2ncn(COC(CO)CO)c2n1 [GANCICLOVIR]"
test_value = "> 30 µM"

[[record]]
compound = "Cn1c(=O)c2[nH]cnc2n(C)c1=O [THEOPHYLLINE]"
test_value = "> 10 µM"

[[record]]
compound = "CNC(=O)c1cc(Oc2ccc(NC(=O)Nc3ccc(Cl)c(C(F)(F)F)c3)c(F)c2)ccn1 [REGORAFENIB]"
test_value = "> 30 µM"

[[record]]
compound = "CCCOC(C(=O)OC1CCN(C)CC1)(c1ccccc1)c1ccccc1 [PROPIVERINE]"
test_value = "> 30 µM"

[[record]]
compound = "N=C(N)NCCCCCCC(=O)NC(O)C(=O)NCCCCNCCCN (configuration not stated)"
test_value = "> 30 µM"

[[record]]
compound = "CC(=O)c1ccc2c(c1)N(CCCN1CCC(CCO)CC1)c1ccccc1S2 [PIPERACETAZINE]"
test_value = "> 30 µM"

[[record]]
compound = "CN(C)c1cc(NC(=O)CNC(C)(C)C)c(O)c2c1C[C@H]1C[C@H]3[C@H](N(C)C)C(O)=C(C(N)=O)C(=O)[C@@]3(O)C(O)=C1C2=O [TIGECYCLINE]"
test_value = "> 30 µM"

[[record]]
compound = "O=C(O)c1ccccc1Nc1cccc(C(F)(F)F)c1 [FLUFENAMIC ACID]"
test_value = "> 10 µM"

[[record]]
compound = "N[C@H](Cc1cc(I)c(Oc2cc(I)c(O)c(I)c2)c(I)c1)C(=O)O [DEXTROTHYROXINE]"
test_value = "> 10 µM"

[[record]]
compound = "CC(=O)O[C@H]1C[C@@H]2CC[C@@H]3[C@H](CC[C@@]4(C)[C@H]3C[C@H]([N+]3(C)CCCCC3)[C@@H]4OC(C)=O)[C@@]2(C)C[C@@H]1[N+]1(C)CCCCC1 [PANCURONIUM]"
test_value = "> 10 µM"

[[record]]
compound = "CC(C)OC(=O)C(C(=O)OC(C)C)=C1SC=CS1 [MALOTILATE]"
test_value = "> 30 µM"

[[record]]
compound = "CO/N=C(\\C(=O)N[C@@H]1C(=O)N2C(C(=O)O)=C(COC(N)=O)CS[C@H]12)c1ccco1 [CEFUROXIME]"
test_value = "> 30 µM"

